Each recorded value in this set is attributed to patent US20240409629A1.

target: T1, human CLDN18.2 (human); assay: FACS, KATOIII cells (natural CLDN18.2)
T1 construct: also called claudin18.2
Test Readout: pEC50
For clarity, pEC50 is expressed as the negative log10 of concentration in mol/L.

Binder: humanized antibody hz28G3-2.3 (antibody, human IgG1, kappa, V domains shown) VH: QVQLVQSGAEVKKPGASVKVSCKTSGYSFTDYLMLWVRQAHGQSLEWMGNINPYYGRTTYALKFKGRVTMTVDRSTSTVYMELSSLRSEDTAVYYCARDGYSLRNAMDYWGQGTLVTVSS VL: DIVMTQSPYSLAVSLGERATINCKSSQSLFNSGNQKNYLAWYQQKPGQPPKLLIYGASTRESGVPDRFTGSGSGTDFTLTISSLQAEDVAVYYCQNAHSYPYTFGQGTKVEIKR
pEC50: 8.18

Binder: humanized antibody hz28G3-1.2 (antibody, human IgG1, kappa, V domains shown) VH: QVQLVQSGAEVKKPGASVKVSCKASGYTFTDYLMLWVRQAPGQGLEWMGNINPYYGRTYYALKFQGRVTMTVDRSTSTVYMELSSLRSEDTAVYYCARDGYSLRNAMDYWGQGTLVTVSS VL: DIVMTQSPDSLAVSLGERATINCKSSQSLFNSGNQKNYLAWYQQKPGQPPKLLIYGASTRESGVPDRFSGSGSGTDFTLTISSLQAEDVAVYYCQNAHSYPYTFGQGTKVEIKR
pEC50: 8.23

Binder: chimeric antibody xi28G3 (antibody, human IgG1, kappa, V domains shown, Mouse variable regions on human IgG1/kappa; defucosylated, expressed in FUT8-knockout CHO-S cells; also called chimeric 28G3) VH: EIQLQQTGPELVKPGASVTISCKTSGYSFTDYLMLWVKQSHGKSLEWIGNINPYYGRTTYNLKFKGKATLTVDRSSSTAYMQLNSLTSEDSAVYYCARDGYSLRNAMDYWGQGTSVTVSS VL: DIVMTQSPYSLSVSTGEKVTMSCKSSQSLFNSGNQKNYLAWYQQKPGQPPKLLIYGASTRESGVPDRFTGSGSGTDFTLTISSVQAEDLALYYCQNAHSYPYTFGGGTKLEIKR
pEC50: 8.18

Binder: IMAB362 (antibody, human IgG1, kappa, V domains shown, Positive control, prepared in-house; also called Claudiximab; TMAB362 [sic]) VH: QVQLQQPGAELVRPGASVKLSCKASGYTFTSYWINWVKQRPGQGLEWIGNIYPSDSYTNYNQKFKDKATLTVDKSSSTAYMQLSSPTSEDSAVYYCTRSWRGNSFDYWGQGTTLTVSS VL: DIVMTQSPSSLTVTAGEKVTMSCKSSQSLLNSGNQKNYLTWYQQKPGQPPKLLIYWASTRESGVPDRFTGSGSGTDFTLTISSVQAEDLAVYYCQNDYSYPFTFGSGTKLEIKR
pEC50: 7.79

Binder: humanized antibody hz28G3-1.1 (antibody, human IgG1, kappa, V domains shown) VH: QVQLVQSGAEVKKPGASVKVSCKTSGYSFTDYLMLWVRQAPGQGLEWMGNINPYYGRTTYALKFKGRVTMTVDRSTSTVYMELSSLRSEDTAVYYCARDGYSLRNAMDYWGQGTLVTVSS VL: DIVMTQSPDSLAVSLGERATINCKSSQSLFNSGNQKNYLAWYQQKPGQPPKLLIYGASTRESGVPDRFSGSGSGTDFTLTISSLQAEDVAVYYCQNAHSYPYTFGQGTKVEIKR
pEC50: 8.09

Binder: humanized antibody hz28G3-2.2 (antibody, human IgG1, kappa, V domains shown) VH: QVQLVQSGAEVKKPGASVKVSCKASGYTFTDYLMLWVRQAPGQGLEWMGNINPYYGRTYYALKFQGRVTMTVDRSTSTVYMELSSLRSEDTAVYYCARDGYSLRNAMDYWGQGTLVTVSS VL: DIVMTQSPYSLAVSLGERATINCKSSQSLFNSGNQKNYLAWYQQKPGQPPKLLIYGASTRESGVPDRFTGSGSGTDFTLTISSLQAEDVAVYYCQNAHSYPYTFGQGTKVEIKR
pEC50: 8.23

Binder: humanized antibody hz28G3-2.1 (antibody, human IgG1, kappa, V domains shown) VH: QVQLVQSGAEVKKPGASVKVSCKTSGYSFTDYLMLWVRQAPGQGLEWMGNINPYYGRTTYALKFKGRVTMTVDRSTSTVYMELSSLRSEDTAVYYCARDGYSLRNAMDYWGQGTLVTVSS VL: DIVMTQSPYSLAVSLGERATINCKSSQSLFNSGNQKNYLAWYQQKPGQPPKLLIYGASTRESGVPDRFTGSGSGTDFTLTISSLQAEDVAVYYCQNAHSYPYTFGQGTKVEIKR
pEC50: 8.14

Binder: humanized antibody hz28G3-2.4 (antibody, human IgG1, kappa, V domains shown) VH: QVQLVQSGAEVKKPGASVKVSCKASGYTFTDYLMLWVRQAHGQSLEWMGNINPYYGRTYYALKFQGRVTMTVDRSTSTVYMELSSLRSEDTAVYYCARDGYSLRNAMDYWGQGTLVTVSS VL: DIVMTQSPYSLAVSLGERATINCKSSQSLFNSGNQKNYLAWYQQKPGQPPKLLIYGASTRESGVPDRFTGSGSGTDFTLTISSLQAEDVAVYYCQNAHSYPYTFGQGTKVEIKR
pEC50: 8.25

// returns reported pEC50 for input humanized antibody hz28G3-1.4 (antibody, human IgG1, kappa, V domains shown) VH: QVQLVQSGAEVKKPGASVKVSCKASGYTFTDYLMLWVRQAHGQSLEWMGNINPYYGRTYYALKFQGRVTMTVDRSTSTVYMELSSLRSEDTAVYYCARDGYSLRNAMDYWGQGTLVTVSS VL: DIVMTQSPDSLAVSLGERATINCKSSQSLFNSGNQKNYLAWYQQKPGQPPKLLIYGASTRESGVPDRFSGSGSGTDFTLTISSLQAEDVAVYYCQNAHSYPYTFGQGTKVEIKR 8.23

// returns reported pEC50 for input humanized antibody hz28G3-1.3 (antibody, human IgG1, kappa, V domains shown) VH: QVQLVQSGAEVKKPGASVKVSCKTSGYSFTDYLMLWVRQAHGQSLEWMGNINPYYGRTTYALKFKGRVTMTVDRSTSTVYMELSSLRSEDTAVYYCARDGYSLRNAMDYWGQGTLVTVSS VL: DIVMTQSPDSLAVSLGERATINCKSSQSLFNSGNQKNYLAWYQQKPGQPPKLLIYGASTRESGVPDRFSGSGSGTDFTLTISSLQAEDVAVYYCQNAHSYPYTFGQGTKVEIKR 8.15
